The reported measurements were obtained from patent US20260258115A1.

system: RSV F on RSV-A2 virus (Respiratory Syncytial Virus (RSV-A2), UniProt P03420 26-574)
assayName: cell-based or functional assay
Each record here notes measured Neutralization IC50 (RSV subtype A).
assayMetric: Neutralization IC50 (RSV subtype A)

* ADI-41459 (antibody, V domains shown, also called Ab 743; Antibody Number 743) VH: QVQLVESGGGLVQPGGSLRLSCAASGFPFSAYGINWVRQAPGKGLEWVSYISSTSTTIKYADSVKGRFTISRDDAKNSLYLQLRSLRPEDTAVYYCAGGVWSGYYIDFWGQGTPVTVSS VL: NFMLTQPQSVSESPGKTVTISCTRSSGSIGSNFVQWYQQRPGSSPTTVIYEDYQRPSGVPDRFSGSIDSSSNSASLTISGLKTEDEADYYCQSYDADMMVFGGGTKLTVL | > 25 µg/mL
* ADI-41517 (antibody, V domains shown) VH: QVQLVQSGGGLVQPGGSLRLACAASGFTLSGYAMNWVRQAPGKGLEWVSSISGSGGSTYYADSVKGRFTTSRDNSKNTVFLHMNSLRAEDTAIYYCATVPWETGPFDHWGQGTLVTVSS VL: QSVLTQPPSVSGAPGQRVTISCTGSSSNIGAGYAVHWYQQLPGTAPKLLIHGTTNRPSGVPDRFSGSKSGTSASLAITGLQAEDEADYYCQSYDSRLSGYVFGTGTKLTVL | 0.02 µg/mL
* ADI-41520 (antibody, V domains shown) VH: EVQLLESGGGVVRPGGSLRLSCAASGFSFDDYGMTWVRQAPGKGLEWVSGINWNGISTDYADSVKGRFTISRDNAKNSVYLQMNSLRAEDTALYYCARIGGVVVIASTAYYYGMDVWGQGTTVTVSS VL: DIQLTQSPSSLSAYVGDRVTITCRASQSIRNHLNWYQQKPGKAPQLLIYTASSLQDGVPSRFSGSGSGTDFTLAISSLQPEDFATYYCQQSHSMPPTFGQGTRLEIK | > 25 µg/mL
